// data source = patent US4971985A

// IC50 lookup, one value per entry
# Study Target: bovine cerebral calmodulin (Bos taurus, UniProt P62157)
# Construct: bovine cerebral calmodulin; from tissue; host or cells: bovine brain (calmodulin); bovine myocardium (PDE)
# Assay Remarks: Calmodulin antagonism (inhibition of 5'-AMP formation by calmodulin-stimulated c-AMP-PDE)
# Assay type: biochemical
Expressed in µM, but write only the number.

- Compound: "Clc1ccc(C(=NOCCc2ccccc2)c2cccnc2)cc1 [Compound 57]"
  Study Target: "bovine cerebral calmodulin (Bos taurus, UniProt P62157)"
  Metric Name: "IC50"
  Observed Measurement: 9.5

Lab note: measured IC50 of Clc1ccccc1C(=NOCCc1ccccc1)c1cccnc1 [Compound 58] was 3.5
